test system: SW480; experiment: cell viability (CellTiter-Glo) relative to plate median (fraction of plate median); higher = more viable cells; settings: 5 µM; treatment time 24 h; reporter: 7TFP
Hi! Just check whether cell viability is below 1. Below gives yes (1), equal or above gives no (0).

Would you kindly verify if cell viability of CC(=O)O[C@]1(C(C)=O)CC[C@H]2[C@@H]3C=C(Cl)C4=CC(=O)CC[C@]4(C)[C@H]3CC[C@@]21C is strictly less than 1?
no (0)

Would you kindly verify if cell viability of CC1(C)CC[C@]2(C(=O)O)[C@H](O)C[C@]3(C)C(=CC[C@@H]4[C@@]5(C)CC[C@H](O)C(C)(C)[C@@H]5CC[C@]43C)[C@H]2C1 is strictly less than 1?
yes (1)

Would you kindly verify if cell viability of CN(N=O)C(=O)N[C@H]1C(O)O[C@H](CO)[C@@H](O)[C@@H]1O (mixture of isomers) is strictly less than 1?
no (0)

Would you kindly verify if cell viability of C=CC[S+]([O-])C[C@H](N)C(=O)O (some centres not stated) is strictly less than 1?
yes (1)

Would you kindly verify if cell viability of CCOC(=O)C1=C(COCCN)NC(C)=C(C(=O)OC)C1c1ccccc1Cl (configuration not stated) is strictly less than 1?
no (0)

Would you kindly verify if cell viability of COc1cc(C/C=C/c2ccccc2)c(OC)cc1O is strictly less than 1?
no (0)

Would you kindly verify if cell viability of O=C(Nc1ccccc1)Nc1ccccc1 is strictly less than 1?
no (0)

src = the supplement of paper PMC6522484
